Data provenance: ChEMBL document CHEMBL1201862

# Test system: UACC-257
# method_summary: NCI tumour cell line growth inhibition, 48 h
Activity calls are given as the source filed them. Cut-off read from the data, not from the text of the source: active = GI50 up to about 1.1 µM and inactive = higher.
property_name: GI50

molecule	measured_target	GI50
Cc1c(C(=O)/C=C/c2ccc(Cl)cc2)[n+]([O-])c2ccccc2[n+]1[O-]	UACC-257	15.8 µM (inactive)
Cc1nc(SCC(=O)Nc2ccccc2)c2sc(=S)n(-c3ccccc3)c2n1	UACC-257	> 10 µM (inactive)
COc1cc(C/N=c2/nc(N(C)C)ss2)cc(OC)c1OC	UACC-257	> 10 µM (inactive)
Cc1ccsc1C(=S)Nc1ccc(Cl)c(C(=O)OC(C(C)C)C(C)C)c1	UACC-257	28.4 µM (inactive)

Ask | For "CCN(CC)c1ccc(/C=c2\nc(-c3ccccc3)n3c2nc2ccccc23)cc1" , what is its reported GI50?
Reply | 21.9 µM (inactive)

Ask | For COc1ccc(N2NC(c3ccccc3)(c3ccccc3)C(C)C2=O)cc1 (centres undefined) , what is its reported GI50?
Reply | 51.3 µM (inactive)

Ask | For "C[C@@]12CCC(=O)c3coc(c31)C(=O)c1cc3c(cc12)C(=O)C=CC3=O" , what is its reported GI50?
Reply | 11.6 µM (inactive)

Ask | For CC(=O)NC1C(OCC(=O)NC(C)C(=O)NC(CCC(=O)NCCCCCNc2ccc([N+](=O)[O-])c3[nH]c4ccccc4c(=O)c23)C(N)=O)C(O)C(CO)OC1(C)OCc1ccccc1 (centres undefined) , what is its reported GI50?
Reply | > 50 µM (inactive)

Ask | For "CC(=O)CCC(=O)C(=[N+]=[N-])S(=O)(=O)c1ccccc1" , what is its reported GI50?
Reply | > 100 µM (inactive)

====

# System: DMS-273
# method_summary: NCI tumour cell line growth inhibition, 48 h
Calls of active or inactive are those of the source. Cut-off read from the data, not from the text of the source: active = GI50 up to about 1.1 µM and inactive = higher.
Your reply should match one of these outcome classes. T for active, F for inactive

Below are worked cases with known answers.
compound	assigned_class
CC(=O)OCC1OC(OC2CC3C(C)(C)C(OC(C)=O)CC[C@]3(C)C3CCC45CC4(CC[C@H]5C(C)CC(O)[C@@H](O)C(C)(C)O)[C@]23C)C(O)C(O)C1O (some centres undefined)	F
FC(F)(F)c1ccc(C2SCc3nc4ccccc4n32)cc1 (centres undefined)	F
COC(=O)c1nc(N)nc(O)c1-c1ccc(Cl)cc1	F
Nc1ccn(C2OC(COP(=O)(O)Oc3ccccc3)C(O)C2O)c(=O)n1 (centres undefined)	F

Ask | For this compound, state the assay outcome: "CCN(CC)c1ccc(C(=C2C=CC(=[N+](CC)CC)C=C2)c2ccccc2)cc1"
Reply | T

Ask | For this compound, state the assay outcome: "O=C(CSc1nnc(-c2ccc(/N=C\c3ccc(Cl)cc3)cc2)o1)Nc1ccccc1[N+](=O)[O-]"
Reply | F

Ask | For this compound, state the assay outcome: COC(=O)C(C(=O)c1ccccc1)C(C(=O)C(=O)Nc1ccc(OC)cc1OC)C(=O)C(=O)c1ccc(C)cc1 (centres undefined)
Reply | F

Ask | For this compound, state the assay outcome: "CN(C)CCC(/C=C/c1ccccc1)=N\Nc1ccc(Cl)cc1Cl"
Reply | F

Ask | For this compound, state the assay outcome: OC1OCC(COc2cc(Cl)c(Cl)cc2Cl)OC1O (centres undefined)
Reply | F

====

# Tested on: NCI/ADR-RES
# method_summary: NCI tumour cell line growth inhibition, 48 h
Active and inactive are the calls of the source. Cut-off read from the data, not from the text of the source: active = GI50 up to about 1.1 µM and inactive = higher.
Your reply should match one of these outcome classes. active, inactive

compound	assigned_class
CC[C@H]1C=CCC[C@@]2(C[C@@H]3CC[C@@H]4[C@H](C(=O)OCCCCCCCCCCCCCCCC(=O)N(CCCN)C[C@@H](O)CCN)[C@]5(CCC[C@@H](C)O5)NC(=[N+]34)N2)O1	active
COc1cc(C/N=c2/nc(N(C)C)ss2)cc(OC)c1OC	inactive
C=CCSC1=N/C(=C\c2ccccc2)C(=O)N1CC=C	inactive

Ask | For this compound, state the assay outcome: CC1(C)O[C@H]2OC3CCC(=O)CC3(O)[C@H]2O1 (some centres undefined)
Reply | inactive

Ask | For this compound, state the assay outcome: "COc1ccc(C2=Nn3c(nc4sc5c(c4c3=O)CCCC5)SC2)cc1"
Reply | inactive

Ask | For this compound, state the assay outcome: COC(=O)C1=CC(=O)OC1(OO)c1ccccc1 (centres undefined)
Reply | inactive

Ask | For this compound, state the assay outcome: "Cc1ccc2oc3c(c(Br)c(Br)n3C)c(=O)c2c1"
Reply | inactive

Ask | For this compound, state the assay outcome: "O=C(c1ccccc1)c1cc[n+](C2=C([N-]S(=O)(=O)c3ccccc3)C(=O)c3ccccc3C2=O)cc1"
Reply | inactive

Ask | For this compound, state the assay outcome: CC(C)(CC(O)C#N)/[N+]([O-])=[N+](\[O-])C(C)(C)CC(O)C#N (centres undefined)
Reply | inactive

====

# Test system: OVCAR-5
# method_summary: NCI tumour cell line growth inhibition, 48 h
The source made the active and inactive calls. Cut-off read from the data, not from the text of the source: active = GI50 up to about 1.1 µM and inactive = higher.
property_name: GI50

Reference set, count: 4
compound	property_name	reported_measurement
CC1(C)Cc2nnsc2C2=C1C(=O)CCS2	GI50	> 100 µM (inactive)
COC(=O)C1=CC(=O)OC1(OO)c1ccccc1 (stereo unspecified)	GI50	> 100 µM (inactive)
O=c1[nH]c(=O)n(C2OC(CO)C(O)C2O)c2nc(-c3ccc(-c4ccccc4)cc3)cnc12 (stereo unspecified)	GI50	> 100 µM (inactive)
O=C(Cc1ccc([N+](=O)[O-])cc1)OCC#CCOC(=O)Cc1ccc([N+](=O)[O-])cc1	GI50	> 10 µM (inactive)

Ask | For CC(OCc1ccccc1)C(NC(=O)C1CSSCC(NC(=O)C(Cc2ccccc2)NC(=O)OCc2ccccc2)C(=O)NC(Cc2ccccc2)C(=O)NC(Cc2cn(C=O)c3ccccc23)C(=O)NC(CCCCNC(=O)OCc2ccccc2)C(=O)NC(C(C)OCc2ccccc2)C(=O)N1)C(N)=O (stereo unspecified) , what is its reported GI50?
Reply | 45 µM (inactive)

Ask | For Clc1cc2nc(C3CCCCO3)[nH]c2cc1Cl (stereo unspecified) , what is its reported GI50?
Reply | > 63.1 µM (inactive)

Ask | For CC1=CCC[C@H]2[C@](C)(CC3=CC(=O)C4SCCSC4C3=O)[C@@H](C)CC[C@]12C (stereo partly specified) , what is its reported GI50?
Reply | 18.6 µM (inactive)

Ask | For "COc1nc(N)nc2c1n(C)c[n+]2C" , what is its reported GI50?
Reply | > 100 µM (inactive)

Ask | For "CN(C)C(=N/O)/C(=N\O)N(C)C" , what is its reported GI50?
Reply | > 100 µM (inactive)

Ask | For CC1=C(/C=C/C(C)=C/C=C/C(C)=C/C(=O)OC2CC(n3cc(F)c(=O)[nH]c3=O)OC2CO)C(C)(C)CCC1 (stereo unspecified) , what is its reported GI50?
Reply | 17.3 µM (inactive)

Ask | For "O=C1/C(=C/c2ccccc2Cl)COc2ccccc21" , what is its reported GI50?
Reply | 17.8 µM (inactive)

Ask | For C=CC(OC(C)=O)c1ccc(OC(C)=O)cc1 (stereo unspecified) , what is its reported GI50?
Reply | 9.27 µM (inactive)

Ask | For "c1ccc2c(c1)C(=Nc1ccc(N=C3c4ccccc4-c4ccccc43)cc1)c1ccccc1-2" , what is its reported GI50?
Reply | > 100 µM (inactive)

Ask | For CC1(C)O[C@H]2OC3CCC(=O)CC3(O)[C@H]2O1 (stereo partly specified) , what is its reported GI50?
Reply | > 100 µM (inactive)

Ask | For "Ic1ccc2c(c1)N(c1ccccc1)c1cc([N-]c3ccc4nc5ccc(I)cc5[n+](-c5ccccc5)c4c3)ccc1N2" , what is its reported GI50?
Reply | > 100 µM (inactive)

Ask | For "CCOc1ccc(/N=C/c2ccnc3ccccc23)cc1" , what is its reported GI50?
Reply | 99.3 µM (inactive)

Ask | For "C[n+]1cccc2c(=O)c3ccccc3oc21" , what is its reported GI50?
Reply | > 100 µM (inactive)

Ask | For "COCN1C(=O)[C@@H]2CCCN2C(=O)c2cc(N)ccc21" , what is its reported GI50?
Reply | > 100 µM (inactive)

====

# System: MDA-MB-231
# method_summary: NCI tumour cell line growth inhibition, 48 h
Activity calls are given as the source filed them. Cut-off read from the data, not from the text of the source: active = GI50 up to about 1.1 µM and inactive = higher.
# GI50 values compiled below

molecule	reported_measurement
CCn1cc(C(=O)O)c(=O)c2ccc(C)nc21 [NALIDIXIC ACID]	> 100 µM (inactive)
O=C1c2[nH]c3ccc(Br)cc3c2CCN1Cc1ccc(Cl)cc1	11.9 µM (inactive)
CCC(=O)OC1CCn2c1nc1c2C(=O)C(C)=C(N2CC2)C1=O (stereo unspecified)	1.42 µM (inactive)

Ask | What value of GI50 on MDA-MB-231 does "C[C@@]12C[C@@H](c3ccccc3O1)N1CCCSC1=N2" have?
Reply | > 100 µM (inactive)

Ask | What value of GI50 on MDA-MB-231 does "COc1ccc(C2=Nn3c(nc4sc5c(c4c3=O)CCCC5)SC2)cc1" have?
Reply | > 100 µM (inactive)

Ask | What value of GI50 on MDA-MB-231 does "Nc1nc(N)c2cc(Sc3ccc4ccccc4c3)ccc2n1" have?
Reply | 2.54 µM (inactive)

Ask | What value of GI50 on MDA-MB-231 does "Cc1nc(SCC(=O)Nc2ccccc2)c2sc(=S)n(-c3ccccc3)c2n1" have?
Reply | 6.18 µM (inactive)

Ask | What value of GI50 on MDA-MB-231 does CCCC(=O)OCC1OC(n2cc(F)c(=O)[nH]c2=O)CC1OC(=O)CCC (stereo unspecified) have?
Reply | > 10 µM (inactive)

Ask | What value of GI50 on MDA-MB-231 does "COc1ccc(N2C(=O)C(=O)N(C)C2=O)c2ccccc12" have?
Reply | > 10 µM (inactive)

Ask | What value of GI50 on MDA-MB-231 does "O=C(O)COc1cc(-c2ccccc2F)nc2cc3c(cc12)OCO3" have?
Reply | > 100 µM (inactive)

Ask | What value of GI50 on MDA-MB-231 does "COc1cc2oc(-c3ccc(O)cc3)cc(=O)c2c(OC)c1O" have?
Reply | 46.9 µM (inactive)
